- assayText: qHTS assay for MDR1-selective chemotherapeutics: Primary screen using the drug-selected MDR subline cells KB-V1; further: nearly all actives have a fitted effect of over 60% in size; further: potency means the concentration at half of the fitted maximal effect
- reportedConditions: KB-V1 MDR cells viability, CellTiter-Glo, 72 h; series mostly up to 46.1 µM
Hit rate of the full screen: of about 400,000 compounds, about 13,000 (3.2%) were called active. About 18% were inconclusive and are not listed. Shown is part of a subset that was picked to be rich in actives.
recordedMetric: Potency

Observe how each entry below is paired with its result.
// query Identify the reported Potency for the following entry. O=C(CSc1ccc(Cl)cc1)NC1CC1
// result inactive

// query Identify the reported Potency for the following entry. CC(=O)c1nn(-c2ccccc2)c(=Nc2ccccc2)cc1C
// result inactive

// query Identify the reported Potency for the following entry. COC(=O)c1ccccc1SC1CC(=O)N(c2cccc(C)c2)C1=O (stereo not drawn)
// result inactive

// query Identify the reported Potency for the following entry. CC(=O)c1c(N2CCN(c3ccc(F)cc3)CC2)nc(=S)n(-c2ccccc2)c1C
// result inactive

// query Identify the reported Potency for the following entry. CCCN(CC(=O)NC(=O)NC1CCCCC1)CC(=O)Nc1cc(Cl)ccc1Cl
// result 4.11 µM (active)

// query Identify the reported Potency for the following entry. Cc1nc2ccccn2c(=O)c1NC(=O)c1ccc(Br)o1
// result inactive

Next:
// query Identify the reported Potency for the following entry. Cc1nn(-c2ccc(F)cc2)c(-n2cccc2)c1C(=O)N1CCN(c2ccccc2)CC1
// result 20.6 µM (active)

// query Identify the reported Potency for the following entry. CCc1ccc2ncc(C(=O)c3ccccc3)c(N3CCOCC3)c2c1
// result inactive

// query Identify the reported Potency for the following entry. COc1ccc(CCNC(=O)COC(=O)/C=C/c2cccs2)cc1OC
// result inactive

// query Identify the reported Potency for the following entry. Cc1cc(Br)cn2c(Cc3ccsc3)c(-c3ccc(C#N)cc3)nc12
// result inactive

// query Identify the reported Potency for the following entry. O=S1(=O)CC(N2CCC(Cc3ccccc3)CC2)CN1Cc1ccccc1 (stereo not drawn)
// result inactive

// query Identify the reported Potency for the following entry. Fc1ccccc1COc1ccccc1CNCc1ccncc1
// result 6.51 µM (active)

// query Identify the reported Potency for the following entry. CCc1cccc(CC)c1N1C(=O)CC(Sc2ccccc2N)C1=O (stereo not drawn)
// result 6.51 µM (active)

// query Identify the reported Potency for the following entry. CN1CCN(C(=O)c2ccc(-c3cc4nc(NCc5cccnc5)n(C)c(=O)c4s3)cc2)CC1
// result inactive

// query Identify the reported Potency for the following entry. Cn1ccc(NC(=O)Nc2ccc(Cl)cc2)n1
// result inactive

// query Identify the reported Potency for the following entry. O=C(c1cnn2c1NC(=C1CC1)C=C2C(F)F)N1CCc2ccccc2C1
// result inactive

// query Identify the reported Potency for the following entry. CCn1c(SCC(=O)Nc2ccc3c(c2)OCCO3)nc2c(c1=O)SC(C)C2 (stereo not drawn)
// result 4.11 µM (active)

// query Identify the reported Potency for the following entry. CCC1CN(S(=O)(=O)c2cc(-c3cc(C)no3)ccc2C)c2cc(C)ccc2O1 (stereo not drawn)
// result inactive

// query Identify the reported Potency for the following entry. COCCn1c(SCC(=O)Nc2cc(OC)ccc2OC)nc2c(c1=O)SC(C)C2 (stereo not drawn)
// result inactive

// query Identify the reported Potency for the following entry. Cc1ccc(CN(C)CC(=O)Nc2cccc([N+](=O)[O-])c2)o1
// result inactive

// query Identify the reported Potency for the following entry. COc1cc(C)c(CN2CCN(C(=O)CCC(=O)c3ccc(C)s3)CC2)cc1OC
// result inactive

// query Identify the reported Potency for the following entry. CCOC(=O)c1c(C)oc2nc(C)nc(Nc3ccc(CC)cc3)c12
// result inactive

// query Identify the reported Potency for the following entry. Clc1ccccc1CSc1nnc(-c2ccco2)c(-c2ccco2)n1
// result 20.6 µM (active)

// query Identify the reported Potency for the following entry. Cc1ccc(S(=O)(=O)N(CCc2ccccc2)c2ccc3c(c2)C2CC3CCN2C(=O)OCc2ccccc2)cc1 (stereo not drawn)
// result inactive

###

- assayText: qHTS assay for MDR1-selective chemotherapeutics: Primary screen using the drug-selected MDR subline cells KB-V1; further: nearly all actives have a fitted effect of over 60% in size
- reportedConditions: KB-V1 MDR cells viability, CellTiter-Glo, 72 h; series mostly up to 46.1 µM
Among all 400,000 compounds or so, about 13,000 (3.2%) were called active. Inconclusive results (about 18%) are left out. The call rests on the fitted dose curve; in most records, active means well fitted cell-killing curve with a large enough effect; inconclusive means small, poorly fitted or top-dose-only effect, or effect the other way; inactive means flat fitted curve, though single readings scatter. The sample as a whole holds a higher share of actives than the screen did.
Respond using exactly one of the listed classes: TRUE = active, FALSE = inactive

// query Per the assay record, what outcome was assigned to CCc1ccc(C2CC(=O)c3c([nH]c(C(=O)OCc4ccc(C)cc4)c3C)C2)cc1 (stereo not given) ?
// result FALSE

// query Per the assay record, what outcome was assigned to COc1cc(C(=O)N(Cc2ccc(N(C)C)cc2)C2CCS(=O)(=O)C2)cc(OC)c1OC (stereo not given) ?
// result FALSE

// query Per the assay record, what outcome was assigned to COc1cc(C(=O)N(Cc2ccc(C(C)C)cc2)C2CCS(=O)(=O)C2)cc(OC)c1OC (stereo not given) ?
// result FALSE

// query Per the assay record, what outcome was assigned to COc1ccc(C2=NN(C(C)=O)C(c3ccccc3)C2)cc1 (stereo not given) ?
// result FALSE

Next:
// query Per the assay record, what outcome was assigned to Cc1cc2c(cc1C)NC(c1ccccn1)C1=C(CC(C)(C)CC1=O)N2 (stereo not given) ?
// result FALSE

// query Per the assay record, what outcome was assigned to COCCCNC(=O)CNC(=S)N(Cc1cc(OC)c(OC)c(OC)c1)C1CCCC1 ?
// result TRUE

// query Per the assay record, what outcome was assigned to CNC(=O)c1ccc(CN(C)C(=O)c2cc(C3CC3)nc3c2cnn3C(C)C)cc1 ?
// result FALSE

// query Per the assay record, what outcome was assigned to O=C(NCc1ccc(F)cc1)c1cc(C2CCCCN2C(=O)c2ccccn2)on1 (stereo not given) ?
// result FALSE

// query Per the assay record, what outcome was assigned to O=C(c1ccccc1)N1N=C(c2ccccc2O)CC1c1ccc(Br)cc1 (stereo not given) ?
// result FALSE

// query Per the assay record, what outcome was assigned to Cc1cccc(C)c1NC(=O)C(c1cccc(F)c1)N1CCN(C)CC1 (stereo not given) ?
// result FALSE

###

- assayText: qHTS assay for MDR1-selective chemotherapeutics: Primary screen using the drug-selected MDR subline cells KB-V1; further: nearly all actives have a fitted effect of over 60% in size
- reportedConditions: KB-V1 MDR cells viability, CellTiter-Glo, 72 h; series mostly up to 46.1 µM
The whole screen tested about 400,000 compounds, of which about 13,000 (3.2%) were called active. Roughly 18% stayed inconclusive and do not appear here. Calls follow the shape of the dose curve; as a rule, active = well fitted cell-killing curve with a large enough effect; inconclusive = small, poorly fitted or top-dose-only effect, or effect the other way; inactive = flat fitted curve, though single readings scatter. Many of the other results were omitted from the sample, so actives are more common in it than they were.
Respond using exactly one of the listed classes: 1.0 (active), 0.0 (inactive)

See these solved cases before continuing.
// query Per the assay record, what outcome was assigned to COc1ccc(-c2nc3c4ccccc4n(CC(=O)Nc4ccc(C(C)=O)cc4)c(=O)n3n2)cc1 ?
// result 0.0

// query Per the assay record, what outcome was assigned to Cc1ccc2nc(-c3ccc(O)cc3)c(Nc3ccc4c(c3)OCO4)n2c1 ?
// result 0.0

// query Per the assay record, what outcome was assigned to CC(=O)Nc1cncc(-c2ccccc2CO)n1 ?
// result 0.0

// query Per the assay record, what outcome was assigned to CCOC(=O)c1c(NC(=O)COC(=O)c2ccc(S(=O)(=O)C(F)F)cc2)sc(C(=O)N(C)C)c1C ?
// result 0.0

// query Per the assay record, what outcome was assigned to CCOC(=O)C1=CCC2C(=O)N(Cc3ccccc3)C(=O)C12 (stereo unspecified) ?
// result 0.0

// query Per the assay record, what outcome was assigned to Cc1ccc2nc(-c3cccnc3)c(NC3CCCC3)n2c1 ?
// result 1.0

// query Per the assay record, what outcome was assigned to CCOC(=O)C1=C(c2ccccc2)Nc2ncnn2C1c1ccc(Cl)cc1 (stereo unspecified) ?
// result 0.0

// query Per the assay record, what outcome was assigned to CC(C)Cn1cc(-c2cncc3nccn23)cn1 ?
// result 0.0

Next:
// query Per the assay record, what outcome was assigned to Cc1ccc2nc(-c3ccccc3)c(CC3CCCCC3)n2c1 ?
// result 0.0

// query Per the assay record, what outcome was assigned to CC1(C(=O)NCc2ccc3c(c2)OCO3)CCN1CCc1ccccc1 (stereo unspecified) ?
// result 0.0

// query Per the assay record, what outcome was assigned to O=[N+]([O-])c1cc(S(=O)(=O)N2CCCC2)ccc1NN=C1CCCC1 ?
// result 1.0

###

- assayText: qHTS assay for MDR1-selective chemotherapeutics: Primary screen using the drug-selected MDR subline cells KB-V1; further: nearly all actives have a fitted effect of over 60% in size
- reportedConditions: KB-V1 MDR cells viability, CellTiter-Glo, 72 h; series mostly up to 46.1 µM
- Description: A prime difficulty in effectively treating cancer is the development of cellular resistance to multiple structurally unrelated anticancer drugs, a phenomenon known as multidrug resistance (MDR). […] Numerous strategies to overcome P-gp-mediated MDR have been explored, including the design of drugs that evade recognition and efflux, and development of inhibitors to block efflux and restore drug accumulation. […]
In all, about 400,000 compounds went through this assay and about 13,000 (3.2%) were called active. Not shown: some 18% with an inconclusive outcome. The call rests on the fitted dose curve; in most records, active means well fitted cell-killing curve with a large enough effect; inconclusive means small, poorly fitted or top-dose-only effect, or effect the other way; inactive means flat fitted curve, though single readings scatter. Many of the other results were omitted from the sample, so actives are more common in it than they were.
Respond using exactly one of the listed classes: active, inactive

See these solved cases before continuing.
// query Per the assay record, what outcome was assigned to O=C(Nc1nnc(CCc2ccccc2)s1)C1CCCO1 (stereo unspecified) ?
// result inactive

// query Per the assay record, what outcome was assigned to COc1ccc(NC(=O)c2ccc3nc(CCc4ccccc4)oc3c2)c(OC)c1 ?
// result inactive

// query Per the assay record, what outcome was assigned to Cn1c(=O)n(C)c2cc(S(=O)(=O)N3CCCc4ccccc43)ccc21 ?
// result active

// query Per the assay record, what outcome was assigned to COc1ccc2ncc3c(-c4ccc(C)c(C)c4)nn(CC(=O)NC4CCCC4)c3c2c1 ?
// result inactive

// query Per the assay record, what outcome was assigned to C=C1C=C(C(F)F)n2ncc(C(=O)NCCc3ccccc3OC)c2N1 ?
// result inactive

// query Per the assay record, what outcome was assigned to CCCCCCOc1ccc(OC(=O)c2cccnc2)cc1 ?
// result inactive

// query Per the assay record, what outcome was assigned to COc1ccc(C(CNC(=O)c2ccc(OCc3cscn3)cc2)N2CCCC2)cc1 (stereo unspecified) ?
// result inactive

// query Per the assay record, what outcome was assigned to CCC(=O)N1c2ccccc2CC1C(=O)N1CCN(c2ccccc2F)CC1 (stereo unspecified) ?
// result inactive

Next:
// query Per the assay record, what outcome was assigned to Cc1ccc2[nH]c(=O)c(COC(=O)c3ccccn3)cc2c1 ?
// result active

// query Per the assay record, what outcome was assigned to O=C(Oc1ccc(-c2nc(-c3ccccn3)no2)cc1)c1ccccc1 ?
// result active

// query Per the assay record, what outcome was assigned to CCOC(=O)c1cc2cc(C)ccc2[nH]1 ?
// result inactive
